B1: TPR 5TU (parent)
chain: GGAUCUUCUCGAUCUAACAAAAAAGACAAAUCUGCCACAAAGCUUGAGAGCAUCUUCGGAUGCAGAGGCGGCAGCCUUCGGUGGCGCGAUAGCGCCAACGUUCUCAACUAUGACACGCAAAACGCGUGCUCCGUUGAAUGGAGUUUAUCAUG

variants of: B1; assay: polymerase ribozyme fitness, log enrichment relative to wild type (log ratio); higher = more active; in vitro selection for triplet polymerase activity
Variants at the floor of the assay were thinned out.
measure: polymerase ribozyme fitness (log ratio)

> print(dat)
                    sequence.change                                  measure  measurement
1  G83A G88A A91G G112U G140U G143C  polymerase ribozyme fitness (log ratio)       ≤ -4.2
2    A20C A41C U55C C93G C99U U102G  polymerase ribozyme fitness (log ratio)       ≤ -4.2
3             C57A C96U C108U G140A  polymerase ribozyme fitness (log ratio)       ≤ -4.2

Please examine the following record next.
// recorded polymerase ribozyme fitness (log ratio) for A37G C72U A97G U102G C118U : ≤ -4.2
